# assay text: AUC in rat
# Assay type: ADME, organism-based
# experimental setup: plasma
assay metric: AUC
Number first, unit second: that is the form wanted.

Give the measured AUC of COc1c(C(=O)Nc2ccccc2)cc(N2CCC(=O)NC2=O)cc1C(C)(C)C .
2.19 µg·h/mL

Give the measured AUC of COc1ccc(N2CCC(=O)NC2=O)cc1C(C)(C)C .
12.4 µg·h/mL

Give the measured AUC of COc1c(C(=O)Nc2ccc(NS(C)(=O)=O)cc2)cc(N2CCC(=O)NC2=O)cc1C(C)(C)C .
3.38 µg·h/mL

Give the measured AUC of COc1c(C(=O)Nc2ccc(NS(=O)(=O)CCN3CCOCC3)cc2)cc(N2CCC(=O)NC2=O)cc1C(C)(C)C .
2.54 µg·h/mL

* * *

# Tested on: Hepatitis C virus
# assay text: Antiviral activity against Hepatitis C virus genotype 1a infected in human HuH7 cells
# Format: functional, organism-based, Hepacivirus hominis
# experimental setup: subtype 1a, Huh-7
Could you please mark MET for values of EC50 below 5 µM and NOT MET for values at or above it?

In the record for CC(C)(C)c1cc(N2CCC(=O)NC2=O)cc(C(=O)NCc2ccccc2)c1O , is EC50 less than 5 µM?
NOT MET

In the record for CC(C)(C)c1cc(N2CCC(=O)NC2=O)cc(C(=O)Nc2cccc(NS(C)(=O)=O)c2)c1O , is EC50 less than 5 µM?
NOT MET

In the record for COc1c(C(=O)Nc2ccc(N(C)S(C)(=O)=O)cc2)cc(N2CCC(=O)NC2=O)cc1C(C)(C)C , is EC50 less than 5 µM?
NOT MET

In the record for COc1c(C(=O)Nc2ccc(NS(C)(=O)=O)cc2)cc(-n2ccc(=O)[nH]c2=O)cc1C(C)(C)C , is EC50 less than 5 µM?
MET

In the record for CC(C)(C)c1cc(N2CCC(=O)NC2=O)cc(C(=O)Nc2ccccc2)c1O , is EC50 less than 5 µM?
NOT MET

In the record for COc1c(C(=O)Nc2ccc(OS(C)(=O)=O)cc2)cc(N2CCC(=O)NC2=O)cc1C(C)(C)C , is EC50 less than 5 µM?
MET

In the record for CC(C)(C)c1cc(N2CCC(=O)NC2=O)ccc1O , is EC50 less than 5 µM?
NOT MET

In the record for CC(C)(C)c1cc(-n2ccc(=O)[nH]c2=O)cc(C(=O)Nc2ccc(NS(C)(=O)=O)cc2)c1O , is EC50 less than 5 µM?
MET

In the record for COc1c(C(=O)Nc2ccccc2)cc(N2CCC(=O)NC2=O)cc1C(C)(C)C , is EC50 less than 5 µM?
MET
